Molecular target: human thrombin (Homo sapiens)
Construct: biotin (chemical label)
Test: mRNA display selection against thrombin, selected sequences ranked by next-generation-sequencing frequency
Format: binding
Conditions: Round 3 of selection, ten washes; top binders ranked by frequency
RECORDED METRIC: counts

In the examples that follow, each entry is paired with its recorded counts.
ITEM SEQUENCE	counts
RDPGRIVFNN (MGCTSVHQETKKYQSRDPGRIVFNNSYTYNYEHVDVWGCGSADYKDDDDKKK)	9534
SLFVEYRITY (MGCTSVHQETKKYQSSLFVEYRITYSYTYNYEHVDVWGCGSADYKDDDDKKK)	224

a: RDPYNVLISL (MGCTSVHQETKKYQSRDPYNVLISLSYTYNYEHVDVWGCGSADYKDDDDKKK)
b: RDPGRVIFEI (MGCTSVHQETKKYQSRDPGRVIFEISYTYNYEHVDVWGCGSADYKDDDDKKK)
query: Between a and b , whose measured counts reads higher? # respond with the chosen item's label
result: b
